Provenance of the data: patent US20180228802A1

- MEASUREMENT_TARGET: PD-1
- EXPERIMENT: FACS; rank of the clone among the humanized BAP049 clones; cells and conditions not described in this filing
READOUT_TYPE: Ranking, FACS data

Reported Ranking, FACS data for Clone No. 16 (antibody, human IgG4 S228P, kappa, V domains shown) VH: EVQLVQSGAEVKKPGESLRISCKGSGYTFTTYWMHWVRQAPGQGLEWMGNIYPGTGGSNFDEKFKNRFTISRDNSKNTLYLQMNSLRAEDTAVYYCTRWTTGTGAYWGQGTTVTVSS VL: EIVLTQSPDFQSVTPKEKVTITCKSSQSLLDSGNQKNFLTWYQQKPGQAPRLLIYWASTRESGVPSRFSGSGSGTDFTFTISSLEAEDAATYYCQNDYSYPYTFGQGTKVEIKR was 15

Reported Ranking, FACS data for Clone No. 4 (antibody, human IgG4 S228P, kappa, V domains shown) VH: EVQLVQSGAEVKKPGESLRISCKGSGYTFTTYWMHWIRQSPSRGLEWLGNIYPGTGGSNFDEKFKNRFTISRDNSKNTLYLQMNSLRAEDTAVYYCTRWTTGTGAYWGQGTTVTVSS VL: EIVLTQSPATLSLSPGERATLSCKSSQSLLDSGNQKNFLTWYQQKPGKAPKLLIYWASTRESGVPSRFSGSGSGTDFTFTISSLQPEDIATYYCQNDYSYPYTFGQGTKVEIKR was 14

Reported Ranking, FACS data for Clone No. 5 (antibody, human IgG4 S228P, kappa, V domains shown) VH: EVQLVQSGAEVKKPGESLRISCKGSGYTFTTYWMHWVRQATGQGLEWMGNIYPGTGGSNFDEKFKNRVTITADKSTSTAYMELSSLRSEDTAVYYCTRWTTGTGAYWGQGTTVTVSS VL: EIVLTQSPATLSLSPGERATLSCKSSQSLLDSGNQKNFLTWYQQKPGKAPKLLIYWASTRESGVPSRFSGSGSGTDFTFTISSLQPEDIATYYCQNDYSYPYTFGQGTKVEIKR was 5
